Origin of measurements: patent US20240358701A1

procedure details: Phase 1 dose escalation (Example 3): PK evaluation / drug-drug interaction
Type: in vivo, human
experimental parameters: human, plasma, oral, 600 mg QD, Cohort 1, second subject, prior chemotherapy (FIG. 1B); read-out: AUCss for Compound A
quantity measured: AUC

Query string: Dear colleague, I am looking for the recorded AUC of the following compound: "CC(C)(c1ccc(OCc2ccnc(NS(C)(=O)=O)n2)cc1)c1cc(Cl)c(OCCCl)c(C#N)c1"
Result string: ~62000 ng·h/mL
